Please provide measured GI50 for the entries that follow.
- System: SW-620 colon
- assay_overview: NCI tumour cell line growth inhibition, 48 h

Solved cases (4 shown):
{"columns": ["molecule", "GI50"],
 "data": [
  ["COc1cc(OC)c2sc(-c3ccc(-n4cncc4-c4ccc(OC)c(OC)c4)cc3)nc2c1", "> 100 µM"],
  ["CCCCCCCCCc1ccc(OCCOCCOCCOCCOCCOCCOCCOCCOCCO)cc1", "1.19 µM"],
  ["Nc1c(C(=O)c2cccc(C#CCN3CCCCC3)c2)cnn1-c1ccc(F)cc1", "> 25 µM"],
  ["COc1cccc(CNc2ncnc3c2ncn3C2OC(CO)C(O)C2O)c1O (stereo not given)", "0.159 µM"]
]}

Attention now shifts to the item below.
Given the molecule O=C(CC1(O)C(=O)Nc2ccc(F)cc21)c1ccc(C(=O)NCC2CCC3(CC2)OOC2(CCCCC2)OO3)cc1 (stereo not given) , write its reported GI50.
7.72 µM
